- TARGET_OR_TEST_SYSTEM: porcine pancreatic α-amylase (Sus scrofa, UniProt P00690)
- Construct: purchased BioVision K482-100
- Sequence (P00690 16-511): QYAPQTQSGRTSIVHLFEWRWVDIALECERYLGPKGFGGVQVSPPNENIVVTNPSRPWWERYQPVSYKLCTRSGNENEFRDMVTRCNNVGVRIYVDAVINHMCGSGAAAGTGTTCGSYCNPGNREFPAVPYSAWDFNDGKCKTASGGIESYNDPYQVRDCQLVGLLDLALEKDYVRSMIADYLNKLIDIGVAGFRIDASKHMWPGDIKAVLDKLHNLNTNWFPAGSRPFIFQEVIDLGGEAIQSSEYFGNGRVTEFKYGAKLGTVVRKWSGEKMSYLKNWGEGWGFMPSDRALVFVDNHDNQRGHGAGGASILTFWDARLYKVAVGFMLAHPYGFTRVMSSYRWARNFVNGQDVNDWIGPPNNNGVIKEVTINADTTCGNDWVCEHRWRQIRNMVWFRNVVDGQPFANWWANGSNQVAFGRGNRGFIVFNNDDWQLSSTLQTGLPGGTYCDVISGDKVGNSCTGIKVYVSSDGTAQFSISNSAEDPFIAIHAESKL
- TEST_METHOD_NOTES: In vitro α-amylase inhibition assay (BioVision kit / modified DNSA method)
- Assay type: biochemical
- PROTOCOL_CONDITIONS: conc 10 (µg/mL), Table 1S
Parameter threshold = 70%. Response is fulfilled when %inh α-amylase meets or exceeds it, else not fulfilled.

Worked cases, answers included:
- MOLECULE: "COc1ccc(Cc2nnc(SCC(=O)Nc3ccc(Br)cc3)n2-c2ccccc2)cc1 [Compound 10]"
  TARGET_OR_TEST_SYSTEM: "porcine pancreatic α-amylase (Sus scrofa, UniProt P00690)"
  CLASSIFICATION: "fulfilled"
- MOLECULE: "CCOC(=O)c1ccc(NC(=O)CSc2nnc(Cc3ccc(OC)cc3)n2-c2ccccc2)cc1 [Compound 8]"
  TARGET_OR_TEST_SYSTEM: "porcine pancreatic α-amylase (Sus scrofa, UniProt P00690)"
  CLASSIFICATION: "not fulfilled"
- MOLECULE: "COc1ccc(Cc2nnc(SCC(=O)Nc3ccc(C(C)=O)cc3)n2-c2ccccc2)cc1 [Compound 4]"
  TARGET_OR_TEST_SYSTEM: "porcine pancreatic α-amylase (Sus scrofa, UniProt P00690)"
  CLASSIFICATION: "fulfilled"
- MOLECULE: "COc1ccc(Cc2nnc(SCC(=O)Nc3ccccc3)n2-c2ccccc2)cc1 [Compound 3]"
  TARGET_OR_TEST_SYSTEM: "porcine pancreatic α-amylase (Sus scrofa, UniProt P00690)"
  CLASSIFICATION: "fulfilled"
- MOLECULE: "COc1ccc(Cc2nnc(SCC(=O)Nc3ccc(C(=O)O)cc3)n2-c2ccccc2)cc1 [Compound 6]"
  TARGET_OR_TEST_SYSTEM: "porcine pancreatic α-amylase (Sus scrofa, UniProt P00690)"
  CLASSIFICATION: "fulfilled"

Continue with the next molecule.
Does the molecule COc1ccc(Cc2nnc(SCC(=O)Nc3ccc(O)cc3)n2-c2ccccc2)cc1 [Compound 9] have recorded %inh α-amylase that is 70% or more?
fulfilled

====

- Tested on: Saccharomyces cerevisiae α-glucosidase
- TEST_METHOD_NOTES: In vitro α-glucosidase inhibition assay (BioVision kit, pNPG)
- Type: biochemical
- PROTOCOL_CONDITIONS: conc 1000 (µg/mL), Table 2S
Quick rule for you: %inh α-glucosidase at 70% or higher means Condition met, lower means Condition not met.

- COMPOUND: "CCOC(=O)c1ccc(NC(=O)CSc2nnc(Cc3ccc(OC)cc3)n2-c2ccccc2)cc1"
  CLASSIFICATION: "Condition not met"
- COMPOUND: "COc1ccc(Cc2nnc(SCC(=O)Nc3ccccc3)n2-c2ccccc2)cc1"
  CLASSIFICATION: "Condition met"
- COMPOUND: "COc1ccc(Cc2nnc(SCC(=O)Nc3ccc(C(C)=O)cc3)n2-c2ccccc2)cc1"
  CLASSIFICATION: "Condition met"
- COMPOUND: "C[C@H]1O[C@H](O[C@H]2[C@H](O)[C@@H](O)[C@@H](O[C@H]3[C@H](O)[C@@H](O)C(O)O[C@@H]3CO)O[C@@H]2CO)[C@H](O)[C@@H](O)[C@@H]1N[C@H]1C=C(CO)[C@@H](O)[C@H](O)[C@H]1O (stereo partly shown) [Acarbose, reference compound]"
  CLASSIFICATION: "Condition met"

Read the next record carefully.
Quick check: does COc1ccc(Cc2nnc(SCC(=O)Nc3ccc(Br)cc3)n2-c2ccccc2)cc1 have %inh α-glucosidase greater than or equal to 70%?
Condition met

====

- TARGET_OR_TEST_SYSTEM: porcine pancreatic α-amylase (Sus scrofa, UniProt P00690)
- Construct: purchased BioVision K482-100
- TEST_METHOD_NOTES: In vitro α-amylase inhibition assay (BioVision kit / modified DNSA method)
- Assay type: biochemical
- PROTOCOL_CONDITIONS: conc 0.01 (µg/mL), Table 1S
PROPERTY_MEASURED: %inh α-amylase (%)
Answers are plain numbers, in %.

Consider the worked cases shown below.
- STRUCTURE_STRING: "CCOC(=O)c1ccc(NC(=O)CSc2nnc(Cc3ccc(OC)cc3)n2-c2ccccc2)cc1"
  TARGET_OR_TEST_SYSTEM: "porcine pancreatic α-amylase (Sus scrofa, UniProt P00690)"
  %inh α-amylase, %: 12
- STRUCTURE_STRING: "COc1ccc(Cc2nnc(SCC(=O)Nc3ccc(C(=O)O)cc3)n2-c2ccccc2)cc1"
  TARGET_OR_TEST_SYSTEM: "porcine pancreatic α-amylase (Sus scrofa, UniProt P00690)"
  %inh α-amylase, %: 14.4
- STRUCTURE_STRING: "COc1ccc(Cc2nnc(SCC(=O)Nc3ccc(O)cc3)n2-c2ccccc2)cc1"
  TARGET_OR_TEST_SYSTEM: "porcine pancreatic α-amylase (Sus scrofa, UniProt P00690)"
  %inh α-amylase, %: 20.6
- STRUCTURE_STRING: "COc1ccc(Cc2nnc(SCC(=O)Nc3ccccc3)n2-c2ccccc2)cc1"
  TARGET_OR_TEST_SYSTEM: "porcine pancreatic α-amylase (Sus scrofa, UniProt P00690)"
  %inh α-amylase, %: 19.9
- STRUCTURE_STRING: "COc1ccc(Cc2nnc(SCC(=O)Nc3ccc(C(C)=O)cc3)n2-c2ccccc2)cc1"
  TARGET_OR_TEST_SYSTEM: "porcine pancreatic α-amylase (Sus scrofa, UniProt P00690)"
  %inh α-amylase, %: 25.8

Query (compound): COc1ccc(Cc2nnc(SCC(=O)Nc3ccc(Br)cc3)n2-c2ccccc2)cc1 ; field requested: %inh α-amylase
29.2

====

Task for the reader: assign each of the following compounds its reported %inh α-glucosidase.
- Tested on: Saccharomyces cerevisiae α-glucosidase
- TEST_METHOD_NOTES: In vitro α-glucosidase inhibition assay (BioVision kit, pNPG)
- Type: biochemical
- PROTOCOL_CONDITIONS: conc 125 (µg/mL), Table 2S
- Protocol: Using BioVision’s α-Glucosidase Inhibitor Screening Kit (Colorimetric) (Catalogue #K938-100) at (OD: 410 nm), the in vitro α-glucosidase suppression effect for the designed 1,2,4-triazole derivatives 3, 4, 6, 8, 9, and 10 was carried out. The results were analyzed on a multi-well spectrophotometer (ELISA reader) using a 96-well microplate in compliance with the manufacturer’s instructions as previously described[49],[50]. […]
Give bare numbers, in %.

Known %inh α-glucosidase results, listed for orientation:
- COMPOUND: "COc1ccc(Cc2nnc(SCC(=O)Nc3ccc(O)cc3)n2-c2ccccc2)cc1 [Compound 9]"
  TARGET_OR_TEST_SYSTEM: "Saccharomyces cerevisiae α-glucosidase"
  REPORTED: 7.76
- COMPOUND: "COc1ccc(Cc2nnc(SCC(=O)Nc3ccccc3)n2-c2ccccc2)cc1 [Compound 3]"
  TARGET_OR_TEST_SYSTEM: "Saccharomyces cerevisiae α-glucosidase"
  REPORTED: 30
- COMPOUND: "COc1ccc(Cc2nnc(SCC(=O)Nc3ccc(Br)cc3)n2-c2ccccc2)cc1 [Compound 10]"
  TARGET_OR_TEST_SYSTEM: "Saccharomyces cerevisiae α-glucosidase"
  REPORTED: 25.1
- COMPOUND: "COc1ccc(Cc2nnc(SCC(=O)Nc3ccc(C(=O)O)cc3)n2-c2ccccc2)cc1 [Compound 6]"
  TARGET_OR_TEST_SYSTEM: "Saccharomyces cerevisiae α-glucosidase"
  REPORTED: 4.01
- COMPOUND: "C[C@H]1O[C@H](O[C@H]2[C@H](O)[C@@H](O)[C@@H](O[C@H]3[C@H](O)[C@@H](O)C(O)O[C@@H]3CO)O[C@@H]2CO)[C@H](O)[C@@H](O)[C@@H]1N[C@H]1C=C(CO)[C@@H](O)[C@H](O)[C@H]1O (stereo partly shown) [Acarbose, reference compound]"
  TARGET_OR_TEST_SYSTEM: "Saccharomyces cerevisiae α-glucosidase"
  REPORTED: 28

Hi team, please reply with %inh α-glucosidase for each item in this list.
1. COc1ccc(Cc2nnc(SCC(=O)Nc3ccc(C(C)=O)cc3)n2-c2ccccc2)cc1 [Compound 4]
2. CCOC(=O)c1ccc(NC(=O)CSc2nnc(Cc3ccc(OC)cc3)n2-c2ccccc2)cc1 [Compound 8]

36.6
5.94

====

So I've got a bunch of compounds here, and I need their IC50 values.
- TARGET_OR_TEST_SYSTEM: porcine pancreatic α-amylase (Sus scrofa, UniProt P00690)
- Construct: purchased BioVision K482-100
- TEST_METHOD_NOTES: In vitro α-amylase inhibition assay (BioVision kit / modified DNSA method)
- Type: biochemical
- PROTOCOL_CONDITIONS: read-out: α-amylase inhibition IC50 (converted)
Numbers only, in µM.

// each compound listed below needs its IC50
1. COc1ccc(Cc2nnc(SCC(=O)Nc3ccc(C(=O)O)cc3)n2-c2ccccc2)cc1 [Compound 6]
2. CCOC(=O)c1ccc(NC(=O)CSc2nnc(Cc3ccc(OC)cc3)n2-c2ccccc2)cc1 [Compound 8]
3. COc1ccc(Cc2nnc(SCC(=O)Nc3ccc(Br)cc3)n2-c2ccccc2)cc1 [Compound 10]
4. COc1ccc(Cc2nnc(SCC(=O)Nc3ccc(O)cc3)n2-c2ccccc2)cc1 [Compound 9]
5. COc1ccc(Cc2nnc(SCC(=O)Nc3ccccc3)n2-c2ccccc2)cc1 [Compound 3]
6. COc1ccc(Cc2nnc(SCC(=O)Nc3ccc(C(C)=O)cc3)n2-c2ccccc2)cc1 [Compound 4]

[2.61, 2.89, 0.51, 1.41, 0.859, 0.402]

These entries and their values trace back to paper PMC12297423.
